testedSystem: hGIPR (Homo sapiens, UniProt P48546)
Sequence (P48546 22-466): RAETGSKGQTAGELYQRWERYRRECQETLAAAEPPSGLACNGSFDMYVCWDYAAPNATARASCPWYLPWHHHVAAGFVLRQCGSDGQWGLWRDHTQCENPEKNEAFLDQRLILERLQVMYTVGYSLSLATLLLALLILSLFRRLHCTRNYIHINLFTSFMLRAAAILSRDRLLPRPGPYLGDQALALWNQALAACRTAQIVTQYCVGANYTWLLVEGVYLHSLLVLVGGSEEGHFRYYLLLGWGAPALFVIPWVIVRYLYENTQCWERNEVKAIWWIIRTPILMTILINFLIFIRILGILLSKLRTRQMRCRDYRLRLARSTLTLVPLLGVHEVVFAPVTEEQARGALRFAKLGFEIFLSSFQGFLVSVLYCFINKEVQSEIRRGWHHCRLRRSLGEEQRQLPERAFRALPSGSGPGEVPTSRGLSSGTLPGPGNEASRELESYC
test: Functional cAMP activity in the presence of 1% HSA
Type: cell-based
experimentalContext: read-out: cAMP Rel EC50, hGIPR
Starred links: 1 amine or outer side, 2 acyl side, 3 side chain; linkers in the order of their positions; H or OH if unused. Non-standard residues stand in square brackets, D forms with d. Groups on a side chain read outwards from the residue. No end group written: not given here. *: point of attachment. C20 diacid = O=C(O)CCCCCCCCCCCCCCCCCCC(=O)*; C18 diacid = O=C(O)CCCCCCCCCCCCCCCCC(=O)*; αMePhe(2-F) = C[C@](N)(Cc1ccccc1F)C(=O)O; γGlu = O=C(O)[C@H](CCC(=O)[*:2])N[*:1]; αMe4Pal = C[C@](N)(Cc1ccncc1)C(=O)O; αMeY = C[C@](N)(Cc1ccc(O)cc1)C(=O)O; 4Pal = N[C@@H](Cc1ccncc1)C(=O)O; αMeL = CC(C)C[C@](C)(N)C(=O)O; αMeS = C[C@](N)(CO)C(=O)O; Orn = NCCC[C@H](N)C(=O)O; AEEA = NCCOCCOCC(=O)O; Aib = CC(C)(N)C(=O)O
valueKind: pEC50
Numbers only, as −log10 of the molar value.

H-Y[Aib]QGTFTSD[4Pal]SQ[αMeL]LDKK([γGlu-γGlu-C18 diacid])AQ[αMe4Pal]AFIE[αMe4Pal]LIE[Aib]GPSSGEPPPSGSEE-NH2 [Example 1125]	8.40

I have 6 substances here; please give me pEC50 for each one.
1. H-Y[Aib]QGTFTSDFS[Orn][αMeL]LDKK([AEEA-γGlu-C20 diacid])AQ[Aib]AFIEYLLE[Aib]GPSSGAPPPSGS-NH2 [Example 73]
2. Y[Aib]QGTFTSDFS[Orn][αMeL]LDKK([AEEA-γGlu-C18 diacid])AQ[Aib]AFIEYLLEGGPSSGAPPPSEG-NH2 [Example 50]
3. H-Y[Aib]QGTFTSDFS[Orn][αMeL]LDKK([AEEA-AEEA-γGlu-C18 diacid])AQ[Aib]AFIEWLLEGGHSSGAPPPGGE-NH2 [Example 271]
4. H-Y[Aib]QGT[αMePhe(2-F)]TSD[4Pal][αMeS]I[αMeL]LD[Orn]K([γGlu-γGlu-C18 diacid])AQ[Aib][Orn]FI[dE][αMeY]LAEGGPSSGEPPPSGTE-NH2 [Example 544]
5. Y[Aib]QGTFTSD[4Pal]SQ[αMeL]LDKK([AEEA-γGlu-C18 diacid])AQ[Aib]AFIEYLLE[dA]GPSSGAPPPSG[4Pal]-NH2 [Example 822]
6. H-Y[Aib]Q[dA]T[αMePhe(2-F)]TSD[4Pal][αMeS]I[αMeL]LD[Orn]K([AEEA-γGlu-C18 diacid])AQ[αMe4Pal]EFI[dE][αMeY]LIEGGPSSGEPPPSGTGE-NH2 [Example 766]

Reply text:
1. 7.24
2. 7.16
3. 7.80
4. 8.62
5. 7.74
6. 7.85
